# Target of assay: VIPR2 (Homo sapiens, UniProt P41587)
# Measurement protocol: Inhibition of VIP-induced cAMP elevation (% Activity cAMP)
# Assay type: cell-based
# Design: expressed in transfected cells; host or cells: HEK293 cells transfected with VIPR2 in pCDNA3.1 (as described)
# Applied conditions: 0.5 μM, Batch 1
Measurement kind: inhibition at 0.5 µM
Note: a bare number is incomplete; add the unit.

Observe how each entry below is paired with its result.
• O=C(CCN1C(=O)C=CC1=O)NC[C@@H](O)C[C@@H](Cc1ccccc1)C(=O)N[C@H]1c2ccccc2C[C@H]1O = 15.5%
• C#CCCCC(=O)NC[C@@H](O)C[C@@H](Cc1ccccc1)C(=O)N[C@H]1c2ccccc2C[C@H]1O = 20.8%
• C=Cc1ccc(C(=O)NC[C@@H](O)C[C@@H](Cc2ccccc2)C(=O)N[C@H]2c3ccccc3C[C@H]2O)cc1 = 16.1%
• CC(C)(C)c1ccc(S(=O)(=O)NC[C@@H](O)C[C@@H](Cc2ccccc2)C(=O)N[C@H]2c3ccccc3C[C@H]2O)cc1 [A, reference compound] = 9.7%
• CC(C)CS(=O)(=O)NC[C@@H](O)C[C@@H](Cc1ccccc1)C(=O)N[C@H]1c2ccccc2C[C@H]1O = 13.3%
• O=C(N[C@H]1c2ccccc2C[C@H]1O)[C@H](Cc1ccccc1)C[C@H](O)CNS(=O)(=O)c1ccccc1C(F)(F)F = 23%

Now for the compound whose inhibition at 0.5 µM we want.
Given `O=C(NC[C@@H](O)C[C@@H](Cc1ccccc1)C(=O)N[C@H]1c2ccccc2C[C@H]1O)c1cccnc1` , state its recorded inhibition at 0.5 µM.
15.2%

* * *

# Target of assay: VIPR2 (Homo sapiens, UniProt P41587)
# Measurement protocol: Inhibition of VIP-induced cAMP elevation (% Activity cAMP)
# Format: cell-based
# Set-up: expressed in transfected cells; host or cells: HEK293 cells transfected with VIPR2 in pCDNA3.1 (as described)
# Applied conditions: 0.5 μM, Batch 3
Each entry below carries its recorded inhibition at 0.5 µM.
Output spec: scalar in %, unitless text.

Observe how each entry below is paired with its result.
* O=C(NCc1ccccc1)c1ccc(S(=O)(=O)NC[C@@H](O)C[C@@H](Cc2ccccc2)C(=O)N[C@H]2c3ccccc3C[C@H]2O)cc1 [Compound X098] | 25
* CCCCCNc1ccc(S(=O)(=O)NC[C@@H](O)C[C@@H](Cc2ccccc2)C(=O)N[C@H]2c3ccccc3C[C@H]2O)cc1 [Compound X087] | 10.8
* O=C(Nc1ccc(S(=O)(=O)NC[C@@H](O)C[C@@H](Cc2ccccc2)C(=O)N[C@H]2c3ccccc3C[C@H]2O)cc1)C1CC1 [Compound X093] | -2.4

Now for the molecule whose inhibition at 0.5 µM we want.
Given CN(C)c1ccc(S(=O)(=O)NC[C@@H](O)C[C@@H](Cc2ccccc2)C(=O)N[C@H]2c3ccccc3C[C@H]2O)cc1 [Compound X083] , state its recorded inhibition at 0.5 µM.
9.4

* * *

# Target of assay: VIPR2 (Homo sapiens)
# Sequence (P41587 24-438): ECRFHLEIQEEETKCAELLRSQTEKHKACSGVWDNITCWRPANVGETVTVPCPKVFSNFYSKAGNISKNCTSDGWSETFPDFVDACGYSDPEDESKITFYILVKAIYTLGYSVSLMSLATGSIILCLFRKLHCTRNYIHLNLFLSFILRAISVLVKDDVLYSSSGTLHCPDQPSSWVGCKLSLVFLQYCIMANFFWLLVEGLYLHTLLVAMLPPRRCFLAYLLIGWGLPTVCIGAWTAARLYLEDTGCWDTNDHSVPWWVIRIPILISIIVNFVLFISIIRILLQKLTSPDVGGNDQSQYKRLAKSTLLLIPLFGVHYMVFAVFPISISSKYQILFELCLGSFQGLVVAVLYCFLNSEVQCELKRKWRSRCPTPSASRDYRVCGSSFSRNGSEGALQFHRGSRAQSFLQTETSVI
# Measurement protocol: Inhibition of VIP-induced β-arrestin recruitment (% Activity Arrestin)
# Assay type: cell-based
# Design: expressed in transfected cells; host or cells: HEK293 cells transfected with VIPR2 in pCDNA3.1 (as described)
# Applied conditions: 5 μM, Batch 1
Each entry below carries its recorded inhibition at 5 µM.
Output spec: scalar in %, unitless text.

Observe how each entry below is paired with its result.
* CC(=O)c1ccc(S(=O)(=O)NC[C@@H](O)C[C@@H](Cc2ccccc2)C(=O)N[C@H]2c3ccccc3C[C@H]2O)cc1 [K] | 88.7
* Cc1ccc(S(=O)(=O)NC[C@@H](O)C[C@@H](Cc2ccccc2)C(=O)N[C@H]2c3ccccc3C[C@H]2O)c(C)c1 [N] | 31.8

Given O=C(NC[C@@H](O)C[C@@H](Cc1ccccc1)C(=O)N[C@H]1c2ccccc2C[C@H]1O)C(Cl)Cl [Compound A6] , state its recorded inhibition at 5 µM.
20

Given O=C(N[C@H]1c2ccccc2C[C@H]1O)[C@H](Cc1ccccc1)C[C@H](O)CNS(=O)(=O)c1ccccc1C(F)(F)F [R] , state its recorded inhibition at 5 µM.
21

Given O=C(N[C@H]1c2ccccc2C[C@H]1O)[C@H](Cc1ccccc1)C[C@H](O)CNS(=O)(=O)c1ccccc1F [T] , state its recorded inhibition at 5 µM.
52

Given O=C(NC[C@@H](O)C[C@@H](Cc1ccccc1)C(=O)N[C@H]1c2ccccc2C[C@H]1O)c1c(Cl)cc(Cl)cc1Cl [D] , state its recorded inhibition at 5 µM.
31.5

Given CC(C)C(=O)NC[C@@H](O)C[C@@H](Cc1ccccc1)C(=O)N[C@H]1c2ccccc2C[C@H]1O [Compound A13] , state its recorded inhibition at 5 µM.
-16.3

Given Cc1ccc(S(=O)(=O)NC[C@@H](O)C[C@@H](Cc2ccccc2)C(=O)N[C@H]2c3ccccc3C[C@H]2O)cc1 [I] , state its recorded inhibition at 5 µM.
90

Given CC(C)c1ccc(S(=O)(=O)NC[C@@H](O)C[C@@H](Cc2ccccc2)C(=O)N[C@H]2c3ccccc3C[C@H]2O)cc1 [Compound A10] , state its recorded inhibition at 5 µM.
87.7

* * *

Each entry below carries its recorded inhibition at 0.5 µM.
# Target of assay: VIPR2 (Homo sapiens, UniProt P41587)
# Sequence (P41587 24-438): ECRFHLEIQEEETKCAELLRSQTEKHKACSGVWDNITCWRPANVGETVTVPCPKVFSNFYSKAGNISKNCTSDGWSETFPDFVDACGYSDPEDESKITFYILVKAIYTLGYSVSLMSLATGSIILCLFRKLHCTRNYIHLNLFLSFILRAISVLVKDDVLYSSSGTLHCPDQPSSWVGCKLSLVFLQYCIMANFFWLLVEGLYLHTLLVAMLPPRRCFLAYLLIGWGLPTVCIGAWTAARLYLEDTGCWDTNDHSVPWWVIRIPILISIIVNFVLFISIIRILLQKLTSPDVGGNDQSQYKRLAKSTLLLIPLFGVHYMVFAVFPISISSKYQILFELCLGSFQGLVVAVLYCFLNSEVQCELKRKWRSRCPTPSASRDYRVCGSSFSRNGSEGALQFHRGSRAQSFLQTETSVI
# Measurement protocol: Inhibition of VIP-induced β-arrestin recruitment (% Activity Arrestin)
# Format: cell-based
# Parameters: expressed in transfected cells; host or cells: HEK293 cells transfected with VIPR2 in pCDNA3.1 (as described)
# Applied conditions: 0.5 μM, Batch 3
Output spec: scalar in %, unitless text.

Observe how each entry below is paired with its result.
• O=C(NC1CCCC1)c1ccc(S(=O)(=O)NC[C@@H](O)C[C@@H](Cc2ccccc2)C(=O)N[C@H]2c3ccccc3C[C@H]2O)cc1 = 3.9
• CC(=O)Nc1ccc(S(=O)(=O)NC[C@H](C[C@@H](Cc2ccccc2)C(=O)N[C@H]2c3ccccc3C[C@H]2O)OC(C)=O)cc1 = -9.8
• CC(=O)Nc1ccc(S(=O)(=O)NC[C@H](C[C@@H](Cc2ccccc2)C(=O)N[C@H]2c3ccccc3C[C@H]2OC(C)=O)OC(C)=O)cc1 = 0.5
• CCCCCNc1ccc(S(=O)(=O)NC[C@@H](O)C[C@@H](Cc2ccccc2)C(=O)N[C@H]2c3ccccc3C[C@H]2O)cc1 = 2.8
• CCC(=O)Nc1ccc(S(=O)(=O)NC[C@@H](O)C[C@@H](Cc2ccccc2)C(=O)N[C@H]2c3ccccc3C[C@H]2O)cc1 = -3.4

Can you look up inhibition at 0.5 µM on VIPR2 (Homo sapiens, UniProt P41587) for O=C(N[C@H]1c2ccccc2C[C@H]1O)[C@H](Cc1ccccc1)C[C@H](O)CNS(=O)(=O)c1ccc([N+](=O)[O-])cc1 [Compound A27, reference compound] ?
2.6

* * *

# Target of assay: VIPR2 (Homo sapiens)
# Measurement protocol: Inhibition of VIP-induced β-arrestin recruitment (% Activity Arrestin)
# Assay type: cell-based
# Design: expressed in transfected cells; host or cells: HEK293 cells transfected with VIPR2 in pCDNA3.1 (as described)
# Applied conditions: 0.5 μM, Batch 2
Measurement kind: inhibition at 0.5 µM (%)
Output spec: scalar in %, unitless text.

• CC1CCC(NC(=O)[C@H](Cc2ccccc2)C[C@H](O)CNS(=O)(=O)c2ccc([N+](=O)[O-])cc2)CC1 (stereo partly shown) [Compound B8A] = 13.4

Given O=C([C@H](Cc1ccccc1)C[C@H](O)CNS(=O)(=O)c1ccc([N+](=O)[O-])cc1)N1CCOCC1 [Compound B9A] , state its recorded inhibition at 0.5 µM.
-4.3

Given O=C(NC1CCCC1)[C@@H](Cc1ccccc1)C[C@H](O)CNS(=O)(=O)c1ccc([N+](=O)[O-])cc1 [Compound B1B] , state its recorded inhibition at 0.5 µM.
-5.7

Given CCCCNC(=O)[C@@H](Cc1ccccc1)C[C@H](O)CNS(=O)(=O)c1ccc([N+](=O)[O-])cc1 [Compound B7B] , state its recorded inhibition at 0.5 µM.
26.8

Given C#CCNC(=O)[C@@H](Cc1ccccc1)C[C@H](O)CNS(=O)(=O)c1ccc([N+](=O)[O-])cc1 [Compound B21B] , state its recorded inhibition at 0.5 µM.
3.3

Given CCNC(=O)[C@@H](Cc1ccccc1)C[C@H](O)CNS(=O)(=O)c1ccc([N+](=O)[O-])cc1 [Compound B16B] , state its recorded inhibition at 0.5 µM.
-10

Given O=C(NCc1ccccc1)[C@@H](Cc1ccccc1)C[C@H](O)CNS(=O)(=O)c1ccc([N+](=O)[O-])cc1 [Compound B3B] , state its recorded inhibition at 0.5 µM.
-0.3
